molecular target: purified recombinant human Aggrecanase-1 (rAgg1) (Homo sapiens); assay: In vitro fluorescence screen for Aggrecanase-1 inhibitors; assay type: biochemical; conditions: Table 1; read-out: Agg1 IC50
Sequence (O75173 213-837): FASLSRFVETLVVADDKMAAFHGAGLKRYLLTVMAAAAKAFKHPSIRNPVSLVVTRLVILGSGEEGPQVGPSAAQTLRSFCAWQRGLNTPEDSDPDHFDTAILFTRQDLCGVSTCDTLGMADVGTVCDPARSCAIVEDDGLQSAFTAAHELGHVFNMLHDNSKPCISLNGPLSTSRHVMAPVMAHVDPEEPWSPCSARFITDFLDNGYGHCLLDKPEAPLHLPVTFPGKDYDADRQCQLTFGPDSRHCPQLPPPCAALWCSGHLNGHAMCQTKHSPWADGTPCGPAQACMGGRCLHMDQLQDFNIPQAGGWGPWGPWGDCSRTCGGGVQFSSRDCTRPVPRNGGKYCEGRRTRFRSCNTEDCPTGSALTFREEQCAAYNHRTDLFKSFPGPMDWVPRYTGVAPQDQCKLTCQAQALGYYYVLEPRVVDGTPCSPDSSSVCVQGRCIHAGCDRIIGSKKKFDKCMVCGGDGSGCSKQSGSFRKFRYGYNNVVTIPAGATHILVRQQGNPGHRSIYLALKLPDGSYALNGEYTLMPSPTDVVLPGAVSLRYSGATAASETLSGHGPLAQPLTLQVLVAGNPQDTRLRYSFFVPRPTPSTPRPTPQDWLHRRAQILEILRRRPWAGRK
property_measured: IC50 (nM)

Consider the following illustrative entries.
- molecule: "O=C(O)CC[C@H](NC(=O)c1ccc(-c2ccccc2)cc1)C(=O)NC1C2CC3CC(C2)CC1C3 (some centres unmarked)"
  measured_result: 200
- molecule: "O=C(O)CC[C@H](NC(=O)c1ccc2c(c1)Cc1ccccc1-2)C(=O)NCCCCCCO"
  measured_result: 46

1 = NC(=O)[C@@H](CCC(=O)O)NC(=O)c1ccc(-c2ccccc2)cc1
2 = COc1cc(CNC(=O)[C@H](CCC(=O)O)NC(=O)c2ccc(Oc3ccccc3)cc2)cc(OC)c1OC
3 = O=C(O)CC[C@H](NC(=O)c1ccc(-c2ccccc2)cc1)C(=O)NCc1ccc(F)c(F)c1
### Prompt Thanks in advance: please rank these 3 entries by IC50, highest to lowest. Reply with the labels, ordered as the question asks.
### Response 2, 1, 3

I = Nc1cccc(CNC(=O)[C@H](CCC(=O)O)NC(=O)c2ccc(-c3ccccc3)cc2)c1
II = O=C(O)CC[C@H](NC(=O)c1ccc(-c2ccccc2)cc1)C(=O)NCc1ccco1
III = CCOc1cccc(-c2ccc(C(=O)N[C@@H](CCC(=O)O)C(=O)NCc3ccccc3)cc2)c1 [Example 13D]
### Prompt Arrange items by their IC50 values in increasing order. In plain terms: list the labels in the order you were asked to.
### Response I, II, III
(I: 110 nM, II: 290 nM, III: 750 nM)

1 = COc1cccc(COc2ccc(-c3ccc(C(=O)N[C@@H](CCC(=O)O)C(=O)NCc4ccccc4)cc3)cc2)c1 [Example 15F]
2 = O=C(O)CC[C@H](NC(=O)c1ccc(Oc2ccccc2)cc1)C(=O)NCCCc1ccccc1
3 = O=C(O)CC[C@H](NC(=O)c1ccc(-c2ccccc2)cc1)C(=O)NCc1ccc(I)cc1
4 = O=C(O)CC[C@H](NC(=O)c1ccc(-c2ccncc2)cc1)C(=O)NCc1ccccc1 [Example 17VV]
### Prompt Ascending sort, IC50. I'd appreciate it if you listed the labels in the requested order.
### Response 3, 1, 4, 2
